- procedureText: Pharmacokinetic test in rats
- Format: in vivo, SD rats
- runConditions: male, SD, rat, po; rats, i.g. (10 mg/kg), plasma; read-out: AUC0-24 h
observable: AUC(0-t) (ng·h/mL)
Numbers only, in ng·h/mL.

{"compound": "C#CCC1CCN(Cc2c(OC)cc(C)c3[nH]ccc23)[C@H](c2ccc(C(=O)O)cc2)C1 (stereo partly drawn) [Compound 13]", "AUC(0-t) (ng·h/mL)": 6030}
{"compound": "[2H]C([2H])([2H])Oc1cc(C)c2[nH]ccc2c1CN1CC[C@H](C2CC2)C[C@H]1c1ccc(C(=O)O)cc1 [Trifluoroacetate of compound 7 (diastereomer 1)]", "AUC(0-t) (ng·h/mL)": 9160}

// next entry
Please report the measured AUC(0-t) for C#C[C@H]1CCN(Cc2c(OC)cc(C)c3[nH]ccc23)[C@H](c2ccc(C(=O)O)cc2)C1 [Compound 10 (diastereomer 1)]
7920

----------
Answer each item with its documented Papp A→B at 2 h, 2 μM.
- procedureText: Caco2 permeability test
- Type: in vitro ADME
- runConditions: human; Caco-2 monolayer, 2 μM, 2 h, pH 7.4
- Procedure: The experiment used a monolayer of Caco-2 cells incubated in triplicate in a 96-well Transwell plate. […] Acetonitrile containing internal standard was then added to precipitate the protein. […] The integrity of the cell monolayer after 2 h of incubation was assessed by leakage of Lucifer Yellow.
One number for each entry, in nm/s.

{"molecule": "[2H]C([2H])([2H])Oc1cc(C)c2[nH]ccc2c1CN1CC[C@H](C2CC2)C[C@H]1c1ccc(C(=O)O)cc1 [Trifluoroacetate of compound 7 (diastereomer 1)]", "Papp A→B at 2 h, 2 μM (nm/s)": 17.7}
{"molecule": "C#C[C@H]1CCN(Cc2c(OC)cc(C)c3[nH]ccc23)[C@H](c2ccc(C(=O)O)cc2)C1 [Compound 10 (diastereomer 1)]", "Papp A→B at 2 h, 2 μM (nm/s)": 26.2}
{"molecule": "COc1cc(C)c2[nH]ccc2c1CN1CC[C@@H](C2CC2)C[C@H]1c1ccc(C(=O)O)cc1 [Trifluoroacetate of compound 5 (diastereomer 1)]", "Papp A→B at 2 h, 2 μM (nm/s)": 21.7}

// next entry
Please report the measured Papp A→B at 2 h, 2 μM for C#CCC1CCN(Cc2c(OC)cc(C)c3[nH]ccc23)[C@H](c2ccc(C(=O)O)cc2)C1 (stereo partly shown)
25.5

----------
Answer each item with its documented Tmax.
- procedureText: Pharmacokinetic test in rats
- Type: in vivo, SD rats
- runConditions: male, SD, rat, po; rats, i.g. (10 mg/kg), plasma
# include the unit after the value

{"compound": "C#CCC1CCN(Cc2c(OC)cc(C)c3[nH]ccc23)[C@H](c2ccc(C(=O)O)cc2)C1 (some centres unmarked) [Compound 13]", "Tmax": "35 min"}

Please report the measured Tmax for C#C[C@H]1CCN(Cc2c(OC)cc(C)c3[nH]ccc23)[C@H](c2ccc(C(=O)O)cc2)C1 [Compound 10 (diastereomer 1)]
20 min

----------
Answer each item with its documented Papp B→A at 2 h, 2 μM.
- procedureText: Caco2 permeability test
- Assay type: in vitro ADME
- runConditions: human; Caco-2 monolayer, 2 μM, 2 h, pH 7.4
# include the unit after the value

Some molecules with known Papp B→A at 2 h, 2 μM results, for comparison:
{"molecule": "[2H]C([2H])([2H])Oc1cc(C)c2[nH]ccc2c1CN1CC[C@H](C2CC2)C[C@H]1c1ccc(C(=O)O)cc1 [Trifluoroacetate of compound 7 (diastereomer 1)]", "observable": "Papp B→A at 2 h, 2 μM", "result": "19.4 ×10⁻⁶ cm/s"}
{"molecule": "COc1cc(C)c2[nH]ccc2c1CN1CC[C@@H](C2CC2)C[C@H]1c1ccc(C(=O)O)cc1 [Trifluoroacetate of compound 5 (diastereomer 1)]", "observable": "Papp B→A at 2 h, 2 μM", "result": "23.9 ×10⁻⁶ cm/s"}
{"molecule": "C#C[C@H]1CCN(Cc2c(OC)cc(C)c3[nH]ccc23)[C@H](c2ccc(C(=O)O)cc2)C1 [Compound 10 (diastereomer 1)]", "observable": "Papp B→A at 2 h, 2 μM", "result": "12.1 ×10⁻⁶ cm/s"}

// next entry
Please report the measured Papp B→A at 2 h, 2 μM for C#CCC1CCN(Cc2c(OC)cc(C)c3[nH]ccc23)[C@H](c2ccc(C(=O)O)cc2)C1 (stereo partly shown)
20.9 ×10⁻⁶ cm/s

----------
- procedureText: Pharmacokinetic test in mice
- Format: in vivo
- runConditions: male, C57, mouse, plasma, po, i.g. (10 mg/kg)
observable: bioavailability (%)
Answers are plain numbers, in %.

Please report the measured bioavailability for COc1cc(C)c2[nH]ccc2c1CN1CC[C@@H](C2CC2)C[C@H]1c1ccc(C(=O)O)cc1 [Trifluoroacetate of compound 5 (diastereomer 1)]
81.5

----------
Answer each item with its documented half-life.
- procedureText: Pharmacokinetic test of dogs
- Format: in vivo
- runConditions: male, beagle, dog, po, i.g. (5 mg/kg), plasma
Numbers only, in h.

{"compound": "COc1cc(C)c2[nH]ccc2c1CN1CC[C@@H](C2CC2)C[C@H]1c1ccc(C(=O)O)cc1 [Trifluoroacetate of compound 5 (diastereomer 1)]", "half-life (h)": 20.9}
{"compound": "C#CCC1CCN(Cc2c(OC)cc(C)c3[nH]ccc23)[C@H](c2ccc(C(=O)O)cc2)C1 (stereo partly shown)", "half-life (h)": 7.26}
{"compound": "C#C[C@H]1CCN(Cc2c(OC)cc(C)c3[nH]ccc23)[C@H](c2ccc(C(=O)O)cc2)C1 [Compound 10 (diastereomer 1)]", "half-life (h)": 8.89}

// next entry
Please report the measured half-life for [2H]C([2H])([2H])Oc1cc(C)c2[nH]ccc2c1CN1CC[C@H](C2CC2)C[C@H]1c1ccc(C(=O)O)cc1 [Trifluoroacetate of compound 7 (diastereomer 1)]
15.1

----------
- procedureText: Pharmacokinetic test in rats
- Format: in vivo, SD rats
- runConditions: male, SD, rat, plasma, po; rats, i.g. (10 mg/kg)
Answer each item with its documented bioavailability.
One number for each entry, in %.

Some compounds with known bioavailability results, for comparison:
{"compound": "C#CCC1CCN(Cc2c(OC)cc(C)c3[nH]ccc23)[C@H](c2ccc(C(=O)O)cc2)C1 (stereo partly drawn) [Compound 13]", "numericValue": 65.5}
{"compound": "C#C[C@H]1CCN(Cc2c(OC)cc(C)c3[nH]ccc23)[C@H](c2ccc(C(=O)O)cc2)C1 [Compound 10 (diastereomer 1)]", "numericValue": 57.8}

// next entry
Please report the measured bioavailability for [2H]C([2H])([2H])Oc1cc(C)c2[nH]ccc2c1CN1CC[C@H](C2CC2)C[C@H]1c1ccc(C(=O)O)cc1 [Trifluoroacetate of compound 7 (diastereomer 1)]
72.1

----------
Answer each item with its documented Cmax.
- procedureText: Pharmacokinetic test in rats
- Assay type: in vivo, SD rats
- runConditions: male, SD, rat, po; rats, i.g. (10 mg/kg), plasma
One number for each entry, in ng/mL.

Some compounds with known Cmax results, for comparison:
{"compound": "[2H]C([2H])([2H])Oc1cc(C)c2[nH]ccc2c1CN1CC[C@H](C2CC2)C[C@H]1c1ccc(C(=O)O)cc1 [Trifluoroacetate of compound 7 (diastereomer 1)]", "Cmax [ng/mL]": 1130}
{"compound": "C#CCC1CCN(Cc2c(OC)cc(C)c3[nH]ccc23)[C@H](c2ccc(C(=O)O)cc2)C1 (stereo partly drawn) [Compound 13]", "Cmax [ng/mL]": 1600}

// next entry
Please report the measured Cmax for C#C[C@H]1CCN(Cc2c(OC)cc(C)c3[nH]ccc23)[C@H](c2ccc(C(=O)O)cc2)C1 [Compound 10 (diastereomer 1)]
2240

----------
- procedureText: Pharmacokinetic experiment in monkeys
- Type: in vivo, cynomolgus monkeys
- runConditions: male, cynomolgus monkey, po; monkeys, i.g. (5 mg/kg), plasma
observable: AUC(0-t) (ng·h/mL)
Answers are plain numbers, in ng·h/mL.

{"molecule": "[2H]C([2H])([2H])Oc1cc(C)c2[nH]ccc2c1CN1CC[C@H](C2CC2)C[C@H]1c1ccc(C(=O)O)cc1 [Trifluoroacetate of compound 7 (diastereomer 1)]", "AUC(0-t) / ng·h/mL": 48300}

// next entry
Please report the measured AUC(0-t) for C#CCC1CCN(Cc2c(OC)cc(C)c3[nH]ccc23)[C@H](c2ccc(C(=O)O)cc2)C1 (some centres unmarked) [Compound 13]
16600

----------
Answer each item with its documented AUC(0-t).
- procedureText: Pharmacokinetic test of dogs
- Assay type: in vivo
- runConditions: male, beagle, dog, po, i.g. (5 mg/kg), plasma
- Experimental: Test objective: In this experiment, a single dose of test compounds was administered to beagle dogs intravenously and intragastrically, and the concentrations of the test compounds in plasma of the beagle dogs were measured to evaluate pharmacokinetic characteristics of the test compounds in the beagle dogs. […] Before analysis and detection, all samples were stored at −60° C. The samples were analyzed quantitatively by LC-MS/MS.
# include the unit after the value

Some compounds with known AUC(0-t) results, for comparison:
{"compound": "C#CCC1CCN(Cc2c(OC)cc(C)c3[nH]ccc23)[C@H](c2ccc(C(=O)O)cc2)C1 (stereo partly shown)", "observable": "AUC(0-t)", "result": "36100 ng·h/mL"}
{"compound": "COc1cc(C)c2[nH]ccc2c1CN1CC[C@@H](C2CC2)C[C@H]1c1ccc(C(=O)O)cc1 [Trifluoroacetate of compound 5 (diastereomer 1)]", "observable": "AUC(0-t)", "result": "49300 ng·h/mL"}
{"compound": "[2H]C([2H])([2H])Oc1cc(C)c2[nH]ccc2c1CN1CC[C@H](C2CC2)C[C@H]1c1ccc(C(=O)O)cc1 [Trifluoroacetate of compound 7 (diastereomer 1)]", "observable": "AUC(0-t)", "result": "45400 ng·h/mL"}

// next entry
Please report the measured AUC(0-t) for C#C[C@H]1CCN(Cc2c(OC)cc(C)c3[nH]ccc23)[C@H](c2ccc(C(=O)O)cc2)C1 [Compound 10 (diastereomer 1)]
25300 ng·h/mL
